# Species: Mus musculus
# Protocol Summary: Toxicity in mouse allografted with mouse L1210 cells
# Type: organism-based
Entries and their Activity
Property Label: Activity (mg/kg)

- C[As](C)SCC(N)C(=O)O (racemic): 200
- C[As](C)SCC[C@@H](CCCCC(=O)O)S[As](C)C: 100
- C[As](C)SC[C@H](NC(=O)CC[C@H](N)C(=O)O)C(=O)NCC(=O)O: 400
